These measurements were taken from paper PMC9221290.

System: Mycolicibacterium aurum DSM 43999 (ATCC 23366)
METHOD_SUMMARY: Antimycobacterial microdilution broth assay (resazurin), M. aurum
Type: cell-based
DETAILS: Mycolicibacterium aurum, 72 h, read-out: MIC M. aurum, microdilution broth, resazurin, 72 h
PROPERTY_NAME: MIC

[[record]]
molecule = "COc1cc2c(cc1OC)C(=O)Cc1ccc3c(c1CN(C)CC2)OCO3"
property_name = "MIC"
endpoint_value = "≥ 125 mg/L"

[[record]]
molecule = "COc1ccc2c(c1O)-c1c(OC)c(OC)cc3c1[C@H](C2)N(C)CC3"
property_name = "MIC"
endpoint_value = "≥ 500 mg/L"

[[record]]
molecule = "COc1ccc2c(c1OC)CN(C)CCc1cc3c(cc1C(=O)C2)OCO3"
property_name = "MIC"
endpoint_value = "≥ 250 mg/L"

[[record]]
molecule = "CN1Cc2c(ccc3c2OCO3)-c2ccc3cc4c(cc3c21)OCO4 [compound 1, dihydrosanguinarine]"
property_name = "MIC"
endpoint_value = "≥ 500 mg/L"

